Data credit: ChEMBL document CHEMBL1125839

# System: Mus musculus
# test-summary: The compound was tested in vivo for locomotor activity in mice
# Type: functional
Would you mind telling me the reported ED50 of each entry?

Recorded results for 5 compounds are shown here.
# compound, ED50
rows = [
    ("CCCCCc1cc(O)c2c(c1)OC(C)(C)[C@@H]1CC=C(C)C[C@@H]21 [DELTA-8-TETRAHYDROCANNABINOL]", "1.9 mg/kg"),
    ("CCCCCc1cc(OCCN2CCOCC2)c2c(c1)OC(C)(C)[C@@H]1CC=C(C)C[C@@H]21", "> 100 mg/kg"),
    ("CCCCCc1cc(OC)c2c(c1)OC(C)(C)[C@@H]1CC=C(C)C[C@@H]21", "> 100 mg/kg"),
    ("CCCCCc1cc(O)c2c(c1)OC(C)(C)[C@@H]1CCC(C)=C[C@@H]21", "1 mg/kg"),
    ("C=C1C[C@H]2c3c(O)cc(CCCCC)cc3OC(C)(C)[C@@H]2C[C@H]1O", "20 mg/kg"),
]

# map each compound to its ED50
1. CCCCCc1cc(OC)c2c(c1)OC(C)(C)[C@@H]1CCC(C)=C[C@@H]21
2. C=C1CC[C@@H]2[C@@H](C1)c1c(O)cc(CCCCC)cc1OC2(C)C
3. C=C1CC[C@@H]2[C@@H](C1)c1c(O)cc(CCC)cc1OC2(C)C

Result string:
> 100 mg/kg
15 mg/kg
20 mg/kg

====

Would you mind telling me the reported IC50 of each entry?
# system-name: Cannabinoid receptor (Rattus norvegicus, UniProt Q9QZN9+P20272)
# test-summary: The compound was tested in vitro for binding activity against THC cannabinoid receptor site, using 3H-CP-55940 as the radioligand
# Assay type: protein assay

Recorded results for 3 molecules are shown here.
# smiles-structure, result
data = [
    ("C=C1CC[C@@H]2[C@@H](C1)c1c(O)cc(CCC)cc1OC2(C)C", "1400 nM"),
    ("C=C1C[C@H]2c3c(O)cc(CCCCC)cc3OC(C)(C)[C@@H]2C[C@H]1O", "1200 nM"),
    ("CCCCCc1cc(OC)c2c(c1)OC(C)(C)[C@@H]1CCC(C)=C[C@@H]21", "10000 nM"),
]

Next molecule, please.
Recorded IC50 for CCCCCc1cc(OC)c2c(c1)OC(C)(C)[C@@H]1CC=C(C)C[C@@H]21 on Cannabinoid receptor (Rattus norvegicus, UniProt Q9QZN9+P20272) was 3200 nM
